Quick reference for MIC among some compounds
- System: Giardia intestinalis
- protocol summary: Antiprotozoal activity against Giardia lamblia WB6 trophozoites after 48 hrs
- Format: functional
- run conditions: Giardia duodenalis, WB6, 48 h
measured parameter: MIC

INSERT INTO results (mol_smiles, reported_result) VALUES
  ('CC(=O)OCCN(CCOC(C)=O)CCP(=O)(O)OC[C@H]1O[C@@H](Cn2ccc(=O)[nH]c2=O)[C@H](O)[C@@H]1O', '> 10 µM'),
  ('NCCP(=O)(O)OC[C@H]1O[C@@H](n2ccc(=O)[nH]c2=O)[C@H](O)[C@@H]1O', '> 10 µM'),
  ('O=c1ccn(C[C@@H]2O[C@H](COP(=O)(O)CCN3C[C@H](O)[C@@H](O)C3)[C@@H](O)[C@H]2O)c(=O)[nH]1', '0.48 µM'),
  ('O=c1ccn(C[C@@H]2O[C@H](COP(=O)(O)CCNCCO)[C@@H](O)[C@H]2O)c(=O)[nH]1', '> 20 µM'),
  ('O=c1ccn(C[C@@H]2O[C@H](COP(=O)(O)COCCN3C[C@@H](O)[C@H](O)C3)[C@@H](O)[C@H]2O)c(=O)[nH]1', '20 µM'),
  ('O=C1[C@@H](O)[C@H](O)C(=O)N1CCP(=O)(O)OC[C@H]1O[C@@H](Cn2ccc(=O)[nH]c2=O)[C@H](O)[C@@H]1O', '> 20 µM'),
  ('O=c1ccn(C[C@@H]2O[C@H](COP(=O)(O)CCN3CCCC3)[C@@H](O)[C@H]2O)c(=O)[nH]1', '> 20 µM'),
  ('CCOP(=O)(CCN(CCOC(C)=O)CCOC(C)=O)OCC', '> 20 µM'),
  ('CCOP(=O)(CCNCCOC(C)=O)OCC', '> 20 µM'),
  ('O=c1ccn(C[C@@H]2O[C@H](COP(=O)(O)CCCN3C[C@H](O)[C@@H](O)C3)[C@@H](O)[C@H]2O)c(=O)[nH]1', '20 µM'),
  ('O=c1ccn(C[C@@H]2O[C@H](COP(=O)(O)CN3C[C@@H](O)[C@H](O)C3)[C@@H](O)[C@H]2O)c(=O)[nH]1', '> 20 µM'),
  ('CC(=O)OCCN(CCO)CCP(=O)(O)OC[C@H]1O[C@@H](Cn2ccc(=O)[nH]c2=O)[C@H](O)[C@@H]1O', '> 10 µM'),
  ('O=c1ccn(C[C@@H]2O[C@H](COP(=O)(O)CCN(CCO)CCO)[C@@H](O)[C@H]2O)c(=O)[nH]1', '> 10 µM'),
  ('NCP(=O)(O)OC[C@H]1O[C@@H](n2ccc(=O)[nH]c2=O)[C@H](O)[C@@H]1O', '> 20 µM');

Numbers sourced from ChEMBL document CHEMBL1147902.
